SYSTEM_TESTED: Clade B BaL gp120 protein (HIV-1 Clade B, BaL)
EXPERIMENTAL_DETAILS: BLI (Octet), IgG on anti-hIgG Fc sensor, gp120 analyte, 1:1 fit
# reported kon; entries follow

BINDER	UNIT_OF_MEASUREMENT	kon
Hydro2 (antibody, V domains shown) VH: ADLVQSGAVVKKPGDSVRISCEAQGYRFPDYIIHWIRRAPGQGPEWMGWMNPMGGQVNIPQKFQGRVSMTRDTSIETAFLDLRGLKSDDTAVYYCVRDRSNGSGKRFESSNWFLDLWGRGTAVTIQS VL: QSALTQPRSVSASPGQSVTISCTGTHNLVSWCQHQPGRAPKLLIYDFNKRPSGVPDRFSGSGSGGTASLTITGLQDDDDAEYFCWAYENFGGGTKLTVL	M⁻¹ s⁻¹	74700
Germ18 (antibody, V domains shown) VH: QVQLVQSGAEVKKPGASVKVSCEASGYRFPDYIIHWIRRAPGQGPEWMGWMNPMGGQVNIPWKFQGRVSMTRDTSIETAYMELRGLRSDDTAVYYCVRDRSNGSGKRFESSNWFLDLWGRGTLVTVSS VL: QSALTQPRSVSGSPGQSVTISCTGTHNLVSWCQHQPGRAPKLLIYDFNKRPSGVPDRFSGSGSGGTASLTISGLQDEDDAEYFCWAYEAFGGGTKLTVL	M⁻¹ s⁻¹	72200
